# TARGET_SYSTEM: T1, HPV16 E7(11-19)-peptide-MHC tetramer complex (human papillomavirus 16 (HPV16); human)
# T1 construct: also called E7(11-19)-specific tetramer; MHC/E7(11-19) peptide tetramer
# METHOD_DESCRIPTION: flow cytometry, peptide-MHC tetramer staining of TCR-transduced primary human T cells;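 also: normal donor T cells activated with anti-CD3/anti-CD28, then lentivirally transduced with TCRs, with mock-transduced cells as control, co-stained for the transduction marker and CD8, tetramers presented by HLA-A02:01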
% of CD8- (CD4+) cells positive for E7(11-19) tetramer staining values for the binders below.
Dear colleague, please return just the value in %, with no unit written.

Entry TCR 63 (mouse constant regions) (TCR, V domains shown) V domain 1: SQELEQSPQSLIVQEGKNLTINCTSSKTLYGLYWYKQKYGEGLIFLMMLQKGGEEKSHEKITAKLDEKKQQSSLHITASQPSHAGIYLCGADIDDYKLSFGAGTTVTVRA V domain 2: GAGVSQSPRYKVAKRGQDVALRCDPISGHVSLFWYQQALGQGPEFLTYFQNEAQLDKSGLPSDRFFAERPEGSVSTLKIQRTQQEDSAVYLCASRPRQGYNDNEQFFGPGTRLTVLE , % of CD8- (CD4+) cells positive for E7(11-19) tetramer staining reported as 0.25

Entry TCR 65 (mouse constant regions) (TCR, V domains shown) V domain 1: EDQVTQSPEALRLQEGESSSLNCSYTVSGLRGLFWYRQDPGKGPEFLFTLYSAGEEKEKERLKATLTKKESFLHITAPKPEDSATYLCAVQAERGSTLGRLYFGRGTQLTVWP V domain 2: DVKVTQSSRYLVKRTGEKVFLECVQDMDHENMFWYRQDPGLGLRLIYFSYDVKMKEKGDIPEGYSVSREKKERFSLILESASTNQTSMYLCASSLWGRRNTGELFFGEGSRLTVLE , % of CD8- (CD4+) cells positive for E7(11-19) tetramer staining reported as 0.07

Entry TCR 61 (mouse constant regions) (TCR, V domains shown) V domain 1: QKEVEQNSGPLSVPEGAIASLNCTYSDRGSQSFFWYRQYSGKSPELIMFIYSNGDKEDGRFTAQLNKASQYVSLLIRDSQPSDSATYLCAVNIENNNARLMFGDGTQLVVKP V domain 2: EPEVTQTPSHQVTQMGQEVILRCVPISNHLYFYWYRQILGQKVEFLVSFYNNEISEKSEIFDDQFSVERPDGSNFTLKIRSTKLEDSAMYFCASTKRFSYEQYFGPGTRLTVTE , % of CD8- (CD4+) cells positive for E7(11-19) tetramer staining reported as 0.13
